Test target: T1, Saro_0803 (Novosphingobium aromaticivorans DSM …, UniProt Q2GA75 1-157)
T1 sequence: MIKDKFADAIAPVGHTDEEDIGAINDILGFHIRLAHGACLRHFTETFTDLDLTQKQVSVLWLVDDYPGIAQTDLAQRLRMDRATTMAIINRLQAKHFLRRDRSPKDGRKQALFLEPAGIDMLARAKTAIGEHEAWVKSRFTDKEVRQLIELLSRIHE
Assay protocol: ITC; 5% DMSO; ITC: 50 mM Tris-HCl pH 8.0, 200 mM NaCl, 5% DMSO, 25 °C, 20 µM protein, 200 µM DNA; EMSA: 5.0 µM DNA (annealed in 50 mM Tris-HCl pH 8.0, 200 mM NaCl), 37 °C 30
Applied conditions: protein: recombinant; tags: His-tag (pET-30a(+), NdeI/XhoI); chain copies: 2
Measured attribute: Kd

* nov1p22bp (dsDNA) DNA 1: TAATTGTTAGCAATACATACAA DNA 2: TTGTATGTATTGCTAACAATTA | ~3.57 µM
